Assay: HoxA9-arrested leukemia cell differentiation promoters – flow cytometry, MLPCN library, primary screen (AID 624256)
Conditions: ER-HoxA9 myeloid progenitors, lysozyme-GFP differentiation, at 10 µM
In all, about 360,000 compounds went through this assay and about 3,700 (1%) were called active. Inconclusive results (about 2%) are left out.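 The calls were made as follows: active = normalized GFP-positive differentiation at or above the plate's own cutoff, the solvent-only control mean plus 3 SD; inconclusive = no clear call, values can overlap the other calls; inactive = the rest.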 Many of the other results were omitted from the sample, so actives are more common in it than they were.
Classes used: yes = active, no = inactive

compound=CC(C)Oc1ccc(Cc2n[nH]c(=S)n2Cc2ccccc2)cc1Cl label_value=no
compound=COc1ccc(N(CC(=O)N2CCCCCC2)S(=O)(=O)c2ccccc2)cc1 label_value=no
compound="CCCS(=O)(=O)NC(=O)C1(C)CCCN(C(=O)c2cc(C)on2)C1 (configuration not stated)" label_value=no
compound=S=C(NCCCc1cnc[nH]1)NCCCN(Cc1ccc(Cl)c(Cl)c1)c1ccc(Br)cn1 label_value=no
compound=Cc1ccccc1-c1nc(NC(C)C)nc2cc(-c3ccccc3)sc12 label_value=no
compound=O=C(Nc1cccc2cccnc12)c1ccc2sc([C@H]3C[C@H](O)[C@@H](CO)O3)nc2c1 label_value=no
compound=O=C(Nc1cccc(-n2cnnn2)c1)c1cccnc1 label_value=no
compound=Cc1ccc2cc(CN(c3ccc(C)c(C)c3)S(C)(=O)=O)c(=O)[nH]c2c1 label_value=no
compound=CCCCC[C@@H]1C=C(C(=O)OCC)[C@H](c2ccccc2)N1S(=O)(=O)c1ccc(C)cc1 label_value=no
compound=COc1ccc(N(CCC#N)S(=O)(=O)c2ccc(Cl)cc2)cc1 label_value=yes
compound=Cc1ccc(-n2nc3cc(C)c(NC(=O)c4cccnc4)cc3n2)cc1 label_value=yes
compound="Cc1ccc2nc(NC(=O)C3CSC4(C)CCC(=O)N34)sc2c1 (configuration not stated)" label_value=no
compound=O=[N+]([O-])c1ccccc1Nc1ccc(O)cc1 label_value=no
compound=Cc1ccc(S(=O)(=O)N2CCCCC2)cc1NC(=O)c1cccnc1 label_value=no
compound=CCCCc1c(-c2ccc(Br)cc2)ncn1CCc1ccccc1OC label_value=no
compound="CCCCCNC(=O)C(c1ccc(OC)cc1)n1c(=O)c(-c2ccccc2)nc2ccccc21 (configuration not stated)" label_value=no
compound=COc1ccc(S(=O)(=O)NCCCCOc2ccc(Cl)cc2)cc1 label_value=no
compound=CCCc1cc(-c2n[nH]c(=S)n2Cc2ccccc2)cs1 label_value=no
compound=O=C(NCc1ccccn1)[C@@H]1CCCN1C(=O)[C@@H]1CCCN1C(=O)c1ccccc1 label_value=no
compound="COc1ccc(C(C(=O)Nc2c(C)cccc2C)N2CCN(c3ccc(C)cc3)CC2)cc1 (configuration not stated)" label_value=no
compound=Cc1ccc(Nc2ccccc2N)cc1 label_value=yes
compound=CCN(Cc1cc2cc(C)ccc2[nH]c1=O)S(=O)(=O)c1ccccc1 label_value=no
